Biological target: Proteasome chymotrypsin-like activity (S26 protein from RPMI8226 cells) (Homo sapiens)
Sequence (P28074 60-263 limits assumed): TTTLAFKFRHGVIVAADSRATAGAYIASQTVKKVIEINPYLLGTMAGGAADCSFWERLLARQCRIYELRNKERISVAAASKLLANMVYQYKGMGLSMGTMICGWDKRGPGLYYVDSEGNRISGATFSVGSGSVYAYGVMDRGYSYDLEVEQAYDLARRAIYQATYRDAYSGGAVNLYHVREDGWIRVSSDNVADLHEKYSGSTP
// values below are reported IC50

Worked cases, IC50 given:
CC(C)C[C@H](NC(=O)C1(Cn2cccn2)CC(CNC(=O)c2cccn3ccnc23)=NO1)B(O)O (stereo partly drawn)    < 10 nM
CC(C)C[C@H](NC(=O)C1CC(c2ccc(-c3ccccn3)cc2)=NO1)B(O)O (stereo partly drawn)    < 50 nM
Cc1cccc(C(=O)N[C@@H](CC(C)C)C2=NOC(Cc3ccccc3)(C(=O)N[C@@H](CC(C)C)B(O)O)C2)n1 (stereo partly drawn)    < 250 nM
CC(C)C[C@H](NC(=O)C1(Cc2ccccc2)CC(COCc2cccn3ccnc23)=NO1)B(O)O (stereo partly drawn)    < 10 nM
CC(C)C[C@H](NC(=O)C1CC([C@@H](NC(=O)c2nccc3ccccc23)C(C)C)=NO1)B(O)O (stereo partly drawn)    < 25 nM

Ask: Quick one: give measured IC50 for Cc1nn(C)cc1C(=O)NCC1=NOC(Cc2ccccc2)(C(=O)N[C@@H](CC(C)C)B(O)O)C1 (stereo partly drawn)
Reply: < 25 nM

Ask: Quick one: give measured IC50 for CC(C)C[C@H](NC(=O)C1(Cc2ccccc2)CC(CNC(=O)c2ccccc2Cl)=NO1)B(O)O (stereo partly drawn)
Reply: < 10 nM

Ask: Quick one: give measured IC50 for CC(C)C[C@H](NC(=O)C1(Cc2ccccc2)CC(COCc2ccccc2)=NO1)B(O)O (stereo partly drawn)
Reply: < 10 nM

Ask: Quick one: give measured IC50 for CC(C)C[C@H](NC(=O)C1(Cc2ccccc2)CC(CNC(=O)c2nccc3ccccc23)=NO1)B(O)O (stereo partly drawn)
Reply: < 10 nM

Ask: Quick one: give measured IC50 for CC(C)C[C@H](NC(=O)C1(Cc2ccccc2F)CC(CNC(=O)c2nccc3ccccc23)=NO1)B(O)O (stereo partly drawn)
Reply: < 10 nM
